target: DNA topoisomerase 1 (Homo sapiens) (UniProt P11387); assay: Inhibition of recombinant human topoisomerase 1-mediated unwinding of supercoiled plasmid DNA assessed as DNA intercalation at 50 uM after 2 hrs by gel electrophoresis
Sequence (P11387 whole entry): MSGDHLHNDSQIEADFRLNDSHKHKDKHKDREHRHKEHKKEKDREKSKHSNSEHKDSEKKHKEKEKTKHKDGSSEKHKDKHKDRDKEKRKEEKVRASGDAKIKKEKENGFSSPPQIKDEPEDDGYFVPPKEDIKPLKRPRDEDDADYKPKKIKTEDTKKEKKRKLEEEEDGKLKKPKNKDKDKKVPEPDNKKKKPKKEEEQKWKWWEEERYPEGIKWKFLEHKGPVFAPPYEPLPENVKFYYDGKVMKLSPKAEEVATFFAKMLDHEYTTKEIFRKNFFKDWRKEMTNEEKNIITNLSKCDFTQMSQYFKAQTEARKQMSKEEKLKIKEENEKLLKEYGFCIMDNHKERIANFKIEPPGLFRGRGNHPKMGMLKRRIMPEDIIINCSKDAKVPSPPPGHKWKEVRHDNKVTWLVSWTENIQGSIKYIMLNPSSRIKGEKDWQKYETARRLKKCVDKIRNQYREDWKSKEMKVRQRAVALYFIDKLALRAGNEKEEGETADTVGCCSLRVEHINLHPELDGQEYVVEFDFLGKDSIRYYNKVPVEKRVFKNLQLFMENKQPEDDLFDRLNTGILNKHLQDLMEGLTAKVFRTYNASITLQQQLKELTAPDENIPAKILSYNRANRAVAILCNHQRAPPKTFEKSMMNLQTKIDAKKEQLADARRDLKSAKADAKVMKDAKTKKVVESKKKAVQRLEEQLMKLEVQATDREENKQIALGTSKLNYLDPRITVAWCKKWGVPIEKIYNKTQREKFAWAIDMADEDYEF
Activity calls are given as the source filed them. No cut-off for these calls is given here.
Reply using exactly one outcome from active, inactive

**Q:** What is the recorded call for this compound in the test? `CCOC(=O)c1c[nH]c2ccn3ccnc3c2c1=O`
**A:** inactive

**Q:** Kindly provide the recorded test outcome for the following compound: `Cc1ccc(-c2ccc3ccn4ccnc4c3n2)cc1`
**A:** inactive

**Q:** Per the assay record, what outcome was assigned to `COc1cc(-c2ccc3ccn4ccnc4c3n2)cc(OC)c1OC` ?
**A:** active

**Q:** Field: outcome | Entry: `Clc1ccc(-c2ccc3ccn4ccnc4c3n2)cc1`
**A:** active

**Q:** Just curious, what result did `c1ccc(-c2ccc3ccn4ccnc4c3n2)cc1` get here?
**A:** active

**Q:** Dear all, I need the recorded test outcome for `COc1ccc(-c2c[nH]c3ccn4ccnc4c3c2=O)cc1` , thank you.
**A:** inactive

As a next step, examine the compound that follows.
**Q:** Outcome? `COc1ccc(-c2ccc3ccn4ccnc4c3n2)cc1`
**A:** active
